Tested on: MRPA0108
assayText: Checkerboard assay (FICI) of peptides with antibiotics
Assay type: cell-based, Pseudomonas aeruginosa
assayContext: MRPA0108, 24 h 37°C, median of at least three experiments, synergy ≤ 0.5, additive 0.5-1, indifference 1-2
readout: FICI in combination with ceftazidime
When you answer, write just the number.

# annotated cases, reported FICI in combination with ceftazidime shown
substance: IKKILSKIKKWLK-NH2 [L11W]
experimentalTarget: MRPA0108
FICI in combination with ceftazidime: 0.25

substance: IKKWWSKIKKLLK-NH2 [I4WL5W]
experimentalTarget: MRPA0108
FICI in combination with ceftazidime: 0.43

substance: WKKIWSKIKKLLK-NH2 [I1WL5W]
experimentalTarget: MRPA0108
FICI in combination with ceftazidime: 0.37

// next entry
Send back MRPA0108 FICI in combination with ceftazidime of IKKIWSKIKKLLK-NH2 [L5W] only.
0.23
